- Target Or System: Transcription factor Sp1 (Homo sapiens) (UniProt P08047)
- Sequence (P08047 whole entry, looked up): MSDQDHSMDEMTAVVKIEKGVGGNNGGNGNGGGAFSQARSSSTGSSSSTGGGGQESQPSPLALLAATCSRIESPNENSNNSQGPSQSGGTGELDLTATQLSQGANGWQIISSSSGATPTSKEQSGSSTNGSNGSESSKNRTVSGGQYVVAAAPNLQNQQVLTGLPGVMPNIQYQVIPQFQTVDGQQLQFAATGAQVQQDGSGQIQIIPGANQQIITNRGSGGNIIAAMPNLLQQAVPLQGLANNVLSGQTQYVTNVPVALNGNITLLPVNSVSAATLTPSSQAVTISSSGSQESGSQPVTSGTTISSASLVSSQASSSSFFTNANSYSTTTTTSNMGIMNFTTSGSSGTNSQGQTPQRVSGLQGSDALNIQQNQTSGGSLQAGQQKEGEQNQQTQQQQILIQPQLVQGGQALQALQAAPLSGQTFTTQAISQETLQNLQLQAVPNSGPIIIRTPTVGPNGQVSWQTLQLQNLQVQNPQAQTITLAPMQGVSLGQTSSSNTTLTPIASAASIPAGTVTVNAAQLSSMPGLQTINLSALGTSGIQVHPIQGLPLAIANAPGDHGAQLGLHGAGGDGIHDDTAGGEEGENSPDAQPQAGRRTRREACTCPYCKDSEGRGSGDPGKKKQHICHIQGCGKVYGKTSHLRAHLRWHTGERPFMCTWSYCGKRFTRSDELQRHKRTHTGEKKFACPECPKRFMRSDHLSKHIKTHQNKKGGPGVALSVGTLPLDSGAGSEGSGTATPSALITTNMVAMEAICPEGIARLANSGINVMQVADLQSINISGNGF
- Assay Remarks: ATG_Sp1_CIS: Attagene CIS-FACTORIAL HepG2 Assay for human Specificity Protein 1 (Sp1) (AID 2282961)
- Measurement Parameters: HepG2 Sp1 cis-reporter transcription, actives raise or lower the signal
Active and inactive are the calls of the source. The calls were made as follows: active = hit-call score of the fitted dose curve at least 0.9, where 1 is the maximum; inactive = score below 0.9.
Please reply with one of these outcomes: active, inactive

Returns: the outcome recorded for Cc1cccnc1 in this assay.
inactive

Also CCOC(=O)c1ccccc1 , if possible.
active

What do we get for CN(C)N=Nc1ccccc1 ?
inactive

Now consider Clc1ccc(Sc2cc(Cl)c(Cl)cc2Cl)cc1 .
inactive

Another compound to look at: CCC(C)(CCC(C)C)C(=O)O (stereo not given)
inactive

Now consider CCCCCCCCCCC1CO1 (stereo not given) and answer again.
active

Can you handle Cc1cc(-n2nc3ccc(Cl)cc3n2)c(O)c(C(C)(C)C)c1 next?
inactive

What do you have for CC/C=C/CCO ?
inactive

Next entry: CCCCCCCCCCCCCC
inactive

Here is the next compound: CCCC[N+]1(C)CCCC1
inactive

Check O=C1CCCCCCCCCCCCCC1 too.
active

Try this compound too: O=C(O)c1cc(Cl)cc(Cl)c1O
inactive

What do we get for CCCC(=O)OC ?
inactive

Another compound to check: c1ccc(CNc2ncnc3nc[nH]c23)cc1
inactive

Same read-out for Sc1nc2ccccc2s1 ?
inactive

Check OCCc1ccccn1 too.
inactive

And what about the compound O=C(C1CCCCC1)N1CC(=O)N2CCc3ccccc3C2C1 (stereo not given) ?
inactive

Same question, O=C1NC(=O)[C@@H]2CC=CC[C@H]12 this time
inactive

Here is the next compound: CC(=O)CCc1ccccc1
inactive

Same question, CC(C)n1c(/C=C/[C@@H](O)C[C@@H](O)CC(=O)O)c(-c2ccc(F)cc2)c2ccccc21 this time
inactive

Follow-up entry: CCCN[C@H]1CCc2nc(N)sc2C1
inactive

Again, but for CC(C)CC(=O)CC(C)CC(C)C (stereo not given)
inactive

Same again, this time with Cc1cc2nc3c(=O)[nH]c(=O)nc-3n(C[C@H](O)[C@H](O)[C@H](O)CO)c2cc1C
inactive

// next record C1=CCC=C1
inactive

Next entry: COC(OC)C(C)c1ccccc1 (stereo not given)
inactive

How about this compound: CC(C)CC(=O)O
inactive

Try this compound next: CC1=CCCC(C)(C)C12CCC(C)O2 (stereo not given)
inactive

Param item: O=C(O)c1nc(Cl)c(Cl)c(Cl)c1Cl
inactive

Param item: C=CCOCC(CC)(CO)COCC=C
inactive

Please do the same for CN(C)CCCN1c2ccccc2CCc2ccc(Cl)cc21 as well.
inactive

Try this compound next: CCCCCC1CCCC(=O)O1 (stereo not given)
inactive

And what about the compound NC(N)=Nc1nc(CSCCC(N)=NS(N)(=O)=O)cs1 ?
inactive

Next compound up: Oc1ccc(Oc2ccccc2)cc1
inactive

Entry CC[N+](CC)(CC(=O)Nc1c(C)cccc1C)Cc1ccccc1 please
inactive

Queued: CC(C)(C)NC(=O)[C@@H]1CN(Cc2cccnc2)CCN1C[C@@H](O)C[C@@H](Cc1ccccc1)C(=O)N[C@H]1c2ccccc2C[C@H]1O
inactive

CC(C)(Oc1ccc(Cl)cc1)C(=O)O , same question.
inactive

Proceed to CCCCCC[C@@H](O)C/C=C\CCCCCCCC(=O)O
inactive

Then O=C(OCc1ccccc1)c1ccccc1 ?
inactive

Query Cc1ccnc(N)c1 next
inactive

Also need O=C(O)/C=C/C(=O)O , thanks.
inactive

How about this compound: CC/C=C\CC/C=C/C(OCC)OCC
inactive

CN(C)CCC(c1ccc(Cl)cc1)c1ccccn1 (stereo not given) , same question.
inactive

Then what about the compound CC1=C(CC(=O)O)c2cc(F)ccc2/C1=C\c1ccc(S(C)=O)cc1 (stereo not given) ?
inactive

Next entry: CCCCOC(=O)COc1ccc(Cl)cc1Cl
inactive

Further, for CCCCCCOC(=O)CCCCCCCC(=O)OCCCCCC ?
inactive

Then what about the compound C=C1CC[C@H]2C[C@@H]1C2(C)C ?
inactive

Follow-up item: C=CC(C)(CCC=C(C)C)OC(=O)c1ccccc1 (stereo not given)
inactive

Another compound to check: c1ccc2c(c1)Oc1ccccc1S2
active

Check O=C(c1ccccc1)c1ccccc1O too.
inactive

How about this compound: Cc1ccccc1S(=O)(=O)O
inactive

Subsequent entry: NC(=O)c1ccc([N+](=O)[O-])cc1Cl
inactive

Please do the same for OCCOCCOCCOCCOCCO as well.
inactive

Cool, now COc1ccc2ccccc2c1
inactive

Now the compound Nc1nnc(-c2ccc([N+](=O)[O-])o2)o1
inactive

Try this compound too: O=S(=O)(O)c1cccc2ccccc12
inactive

Also O=C(O)c1ccccc1C(=O)O , if possible.
inactive

For CCO[Si](CCCN)(OCC)OCC then?
inactive

Now consider CC/C=C\CCO .
inactive

Again, but for CC(=O)OC(C)(C)Cc1ccccc1
inactive

Also C/C=C(\C)C(=O)OCC/C=C\CC , if possible.
inactive

###

- Assay Remarks: ATG_TGFb_CIS: Attagene CIS-FACTORIAL HepG2 Assay for human Transforming Growth Factor (TGF) (AID 2282967)
- Measurement Parameters: HepG2 Attagene CIS TGFb reporter, mRNA transcription; actives raise or lower the signal
Active and inactive are the calls of the source. The calls were made as follows: active = hit-call score of the fitted dose curve at least 0.9, where 1 is the maximum; inactive = score below 0.9.
// classify into active, inactive

Answer briefly: the call reported for COc1ccc2ccccc2c1 in this assay.
inactive

# iterate: Oc1ccc(Cl)cc1C1CCCC1
inactive

And then O=C1CCCCCCCCCCCCCC1 , what is it?
inactive

Note, next up: CCCC[N+]1(C)CCCC1
inactive

Moving on to the next molecule: CNC[C@H](O)[C@@H](O)[C@H](O)[C@H](O)CO
inactive

Consider next the molecule CCCCCCCCCCCCCCCCCC[N+](C)(C)C in the same way.
active

Same for Oc1ccc(Oc2ccccc2)cc1
inactive

How about O=C(O)/C=C/C(=O)O ?
inactive

What would you report for COCCCN ?
inactive

Same thing, different molecule: CCCCOC(=O)COc1ccc(Cl)cc1Cl
inactive

Then what about the molecule c1ccc(CNc2ncnc3nc[nH]c23)cc1 ?
inactive

Try this molecule next: CC(C)=CCOC(=O)c1ccccc1
inactive

Continue with Cc1cccnc1
inactive

Record: CC(C)CC(=O)CC(C)C
inactive

What do we get for CN(C)c1ccc(C(c2ccccc2)c2ccc(N(C)C)cc2)cc1 ?
inactive

Moving on to the next molecule: Clc1ccccn1
inactive

###

- Target Or System: Cellular tumor antigen p53 (Homo sapiens) (UniProt P04637)
- Sequence (P04637 whole entry, looked up): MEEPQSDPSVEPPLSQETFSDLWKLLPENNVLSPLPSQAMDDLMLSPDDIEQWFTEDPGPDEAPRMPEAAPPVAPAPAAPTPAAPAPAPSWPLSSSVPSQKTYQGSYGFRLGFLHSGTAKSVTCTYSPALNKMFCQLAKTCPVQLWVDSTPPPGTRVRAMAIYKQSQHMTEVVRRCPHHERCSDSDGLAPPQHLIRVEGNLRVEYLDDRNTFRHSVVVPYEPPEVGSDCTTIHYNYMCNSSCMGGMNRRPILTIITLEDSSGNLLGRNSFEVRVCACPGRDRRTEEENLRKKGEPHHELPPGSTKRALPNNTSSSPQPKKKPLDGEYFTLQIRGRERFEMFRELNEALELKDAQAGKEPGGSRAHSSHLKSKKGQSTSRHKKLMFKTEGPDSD
- Assay Remarks: TOX21_p53_BLA_p4_ratio: Tox21 HCT-116 p53 Agonism Beta-lactamase Assay, Ratio, Phase 4 (AID 2283601)
Records with an inconclusive call do not appear. The source made the active and inactive calls. Rule for the calls: active = hit-call score of the fitted dose curve at least 0.9, where 1 is the maximum; inconclusive = response in the unintended direction; inactive = score below 0.9. Where a SMILES comes first, the peptide text is derived from it. [ ]: non-standard residue; d: D form. pGlu = O=C1CC[C@@H](C(=O)O)N1
Measured Endpoint: outcome

Compound | Reported Value
NC(=O)[C@@H]1CCCN1C(=O)[C@H](Cc1cnc[nH]1)NC(=O)[C@@H]1CCC(=O)N1 | inactive
CC(C)=O | inactive
CCC[C@@H]1C[C@@H](C(=O)N[C@@H]([C@H]2O[C@H](SC)[C@H](OP(=O)(O)O)[C@@H](O)[C@H]2O)[C@H](C)Cl)N(C)C1 | inactive
Cc1c(O)c(=O)ccn1C | inactive
c1ccc(C(O[C@H]2CCCN(CCc3ccc4c(c3)OCO4)C2)c2ccccc2)cc1 | inactive

Recorded outcome for FC(F)(F)C(F)(F)C(F)(F)C(F)(F)C(F)(F)F , please?
inactive

// query: C/C=C(\C)C=O
inactive

Same read-out for CC[C@H](C)[C@H](NC(=O)[C@H](Cc1ccccc1)NC(=O)[C@H](C)NC(=O)[C@H](CC(=O)O)NC(=O)[C@H](CCCCN)NC(=O)[C@H](CO)NC(=O)[C@@H]1CCCN1C(=O)[C@@H]1CCC(=O)N1)C(=O)NCC(=O)N[C@@H](CC(C)C)C(=O)N[C@@H](CCSC)C(N)=O ([pGlu]PSKDAFIGLM-NH2) ?
inactive

###

- Read-out: Interleukin-8 (IL8), CXCL8 (gene 3576)
- Assay Remarks: BSK_LPS_IL8: BioMAP Diversity Plus: LPS Assay for Interleukin-8 (IL8) Biomarker Activity (AID 2283078)
- Measurement Parameters: primary human HUVEC with PBMC; actives raise or lower the signal
Active and inactive are the calls of the source. The calls were made as follows: active = hit-call score of the fitted dose curve at least 0.9, where 1 is the maximum; inactive = score below 0.9.
Field 'call' accepts active, inactive

Called result for Sc1nc2ccccc2s1
inactive

Thanks! And Cc1c(C(N)=O)cc([N+](=O)[O-])cc1[N+](=O)[O-] ?
inactive

// same read-out, input: CCCCCCCCCCCCCCCCCC[N+](C)(C)C
active

Another compound to check: CCC(C)=NO
inactive

Same thing, different compound: CC(C)C1OCCN1CCOC(=O)NCCCCCCNC(=O)OCCN1CCOC1C(C)C (configuration not stated)
inactive

Can you handle OC(C(F)(F)F)(C(F)(F)F)C(O)(C(F)(F)F)C(F)(F)F next?
inactive

Similarly, CCC[Si](OC(C)=O)(OC(C)=O)OC(C)=O ?
inactive

One more compound: O=C(C(=O)c1ccccc1)c1ccccc1
active

Next compound up: CC[N+](CC)(CC(=O)Nc1c(C)cccc1C)Cc1ccccc1
active

// next record Cc1cccnc1
inactive

And CCCCCCCCCCC1CO1 (configuration not stated) ?
active

Entry CN(C)CCC(c1ccc(Cl)cc1)c1ccccn1 (configuration not stated) please
inactive

The reported measurements were obtained from PubChem BioAssay (EPA / NIEHS).
